Target: PD-1/PD-L1 interaction (Homo sapiens)
Sequence (Q9NZQ7 19-290): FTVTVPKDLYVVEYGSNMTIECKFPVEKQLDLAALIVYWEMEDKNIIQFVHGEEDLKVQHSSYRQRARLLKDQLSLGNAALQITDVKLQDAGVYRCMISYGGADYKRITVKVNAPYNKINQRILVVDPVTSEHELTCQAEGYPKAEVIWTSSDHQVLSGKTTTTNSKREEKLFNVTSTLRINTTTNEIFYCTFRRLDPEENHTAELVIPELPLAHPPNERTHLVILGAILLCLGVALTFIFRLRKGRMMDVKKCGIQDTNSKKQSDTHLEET
Test: PD-1/PD-L1 blockage cell-based bioassay (Jurkat NFAT luciferase / CHO-PDL1 co-culture)
Details: Jurkat NFAT cells co-cultured with CHO-PDL1 cells, 6 h, luminescence
pIC50: −log10 of the molar value.
metric: pIC50

Consider the reported pIC50 for these compounds:
| compound | pIC50 |
| --- | --- |
| COc1cc(-n2ncc3c(-c4cccc(-c5ccc(CNC[C@H]6C[C@@H](O)C6)c(OC)n5)c4Cl)cccc32)cc(OC)c1CN1CC(C)(O)C1 [Example 68] | > 6.70 |
| COc1cc(-n2ncc3c(-c4cccc(-c5ccc(CN6CC7(CNC(=O)C7)C6)c(OC)n5)c4Cl)cccc32)cc(OC)c1CN1CC(C)(O)C1 [Example 79] | > 6.70 |
| COc1cc(-n2ncc3c(-c4cccc(-c5ccc(CNC[C@H]6C[C@@H](O)C6)c(OC)n5)c4Cl)cccc32)cc(OC)c1CNC[C@@H]1CCC(=O)N1 [Example 55] | 5.70 to 6.70 |

Request: Please give the documented pIC50 of COc1cc(-n2ncc3c(-c4cccc(-c5ccc(CN6CC7(CNC(=O)C7)C6)c(OC)n5)c4Cl)cccc32)cc(OC)c1CN[C@@](C)(CO)C(=O)O [Example 139]
Response: > 6.70

Request: Give a short answer stating reported pIC50 for COc1cc(-n2ncc3c(-c4cccc(-c5ccc(CN6CC(C)(O)C6)c(OC)n5)c4Cl)cccc32)cc(OC)c1CNC[C@@H]1CCC(=O)N1 [Example 54] .
Response: < 5.70

Request: Please indicate pIC50 recorded for COc1cc(-n2ncc3c(-c4cccc(-c5nc6cc(CN(C)C78CCC(C(=O)O)(CC7)CC8)cc(C#N)c6o5)c4C)cccc32)cc(OC)c1CN1CC(O)C1 [Example 159]
Response: > 6.70

Request: // fetch pIC50 given entry COc1cc(-n2ccc3c(-c4cccc(-c5ccc(CNC[C@@H]6CCC(=O)N6)c(OC)n5)c4Cl)cccc32)cc(OC)c1CN1CC[C@H](O)C1 [Example 83]
Response: 5.70 to 6.70

Request: Answer with the recorded pIC50 for the compound listed here: COc1cc(-n2ncc3c(-c4cccc(-c5ccc(CNC[C@@H](C)O)c(OC)n5)c4Cl)cccc32)cc(OC)c1CNC[C@@H](C)O [Example 127]
Response: > 6.70

Request: Specify pIC50 for COc1cc(-n2ncc3c(-c4cccc(-c5ccc(CN6CC7(CCC(=O)N7)C6)c(OC)n5)c4Cl)cccc32)ncc1CNCCO [Example 116] and stop.
Response: > 6.70

Request: Please give the documented pIC50 of COc1cc(-n2ncc3c(-c4cccc(-c5ccc(CN6CC7(CNC(=O)C7)C6)c(OC)n5)c4Cl)cccc32)ncc1CN[C@H]1C[C@@H](O)C1 [Example 111]
Response: 5.70 to 6.70

Request: Answer with the recorded pIC50 of COc1cc(-n2ccc3c(-c4ccc5c(c4)OCCO5)cccc32)cc(OC)c1CNC(C)(CO)C(=O)O (stereo not drawn) [Example 1] only.
Response: < 5.70

Request: Note pIC50 for the compound shown: COc1cc(-n2ncc3c(-c4cccc(-c5ccc(CNCCO)c(OC)n5)c4Cl)cccc32)cc(OC)c1CNCCO [Example 129]
Response: > 6.70

====

Biological target: interaction between PD-1 and PD-L1 (Homo sapiens)
Test: PD-1/PD-L1 protein-protein interaction assay (ALPHA)
Settings: 2 nM His-tagged human PD-L1, 0.6 nM PD-1-Fc, AlphaScreen
pIC50: −log10 of the molar value.
metric: pIC50

Example entries and their recorded answers appear below.
| chemical-string | pIC50 |
| --- | --- |
| COc1cc(-n2ncc3c(-c4cccc(-c5ccc(CN[C@H]6C[C@@H](O)C6)c(OC)n5)c4Cl)cccc32)ncc1CN[C@H](CO)C(=O)O | > 9.00 |
| COc1cc(-n2ncc3c(-c4cccc(-c5ccc(CNC[C@@H]6CCC(=O)N6)c(OC)n5)c4Cl)cccc32)cc(OC)c1CN1CC[C@@H](C(=O)O)C1 | > 9.00 |
| COc1cc(-n2ccc3c(-c4ccc5c(c4)OCCO5)cccc32)cc(OC)c1CN1C[C@H](O)C[C@@H]1C(=O)O | < 7.00 |
| COc1cc(-n2ncc3c(-c4cccc(-c5ccc(CN6CC7(CNC(=O)C7)C6)c(OC)n5)c4Cl)cccc32)ncc1CNC[C@@H](C)O | > 9.00 |
| COc1cc(-n2ncc3c(-c4cccc(-c5ccc(CN[C@H]6C[C@@H](O)C6)c(OC)n5)c4Cl)cccc32)ncc1CN[C@@H](CO)C(N)=O | > 9.00 |

Shifting focus to the molecule that follows.
Request: Provide only the value of recorded pIC50 for `Cc1cc2cc(CNC[C@@H]3CCC(=O)N3)cnc2c(-n2ccc3c(-c4ccc5c(c4)OCCO5)cccc32)n1`
Response: < 7.00

====

Target: interaction between PD-1 and PD-L1 (Homo sapiens, UniProt Q9NZQ7)
Experiment: PD-1/PD-L1 protein-protein interaction assay (ALPHA)
Conditions: 2 nM His-tagged human PD-L1, 0.6 nM PD-1-Fc, AlphaScreen
Quick reference for IC50 among some compounds

Example results:
| compound | IC50 |
| --- | --- |
| COc1cc(-n2ncc3c(-c4cccc(-c5ccc(CN6CC7(CNC(=O)C7)C6)c(OC)n5)c4Cl)cccc32)cc(OC)c1CN1CC(C(C)(C)O)C1 [Example 137] | < 1 nM |
| COc1cc(-n2ncc3c(-c4cccc(-c5nc6cc(CN7CC[C@@H](C(=O)O)C7)cc(C#N)c6o5)c4C)cccc32)cc(OC)c1CN1CC[C@@H](O)C1 [Example 154] | < 1 nM |
| COc1cc(-n2ncc3c(-c4cccc(-c5nc6cc(CN(C)C78CCC(C(=O)O)(CC7)CC8)cc(C#N)c6o5)c4C)cccc32)cc(OC)c1CN1CC[C@@H](O)C1 [Example 157] | < 1 nM |

Request: Given COc1cc(-n2ncc3c(-c4cccc(-c5ccc(CNC[C@H]6C[C@@H](O)C6)c(OC)n5)c4Cl)cccc32)cc(OC)c1CN1CC(C)(O)C1 [Example 68] , respond with its IC50.
Response: < 1 nM

Request: Recall and state the measured IC50 for COc1cc(-c2cccc(-c3cccc4c3cnn4-c3cc(OC)c(CN4CC5(CNC(=O)C5)C4)c(OC)c3)c2Cl)cc(F)c1CN(C)C12CCC(C(=O)O)(CC1)CC2 [Example 160] .
Response: < 1 nM

Request: Identify IC50 associated with the compound COc1cc(-n2ncc3c(-c4cccc(-c5ccc(CN6CC7(CNC(=O)C7)C6)c(OC)n5)c4Cl)cccc32)cc(OC)c1CN[C@H](C(=O)O)[C@@H](C)O [Example 141]
Response: < 1 nM

====

Biological target: PD-1/PD-L1 interaction (Homo sapiens)
Test: PD-1/PD-L1 blockage cell-based bioassay (Jurkat NFAT luciferase / CHO-PDL1 co-culture)
Conditions: Jurkat NFAT cells co-cultured with CHO-PDL1 cells, 6 h, luminescence
pIC50: −log10 of the molar value.
Items are presented alongside their recorded pIC50.

Below, 8 molecules whose answers are already recorded.
| molecule | tested-on | test-result |
| --- | --- | --- |
| COc1cc(-n2ncc3c(-c4cccc(-c5ccc(CN[C@H]6C[C@@H](O)C6)c(OC)n5)c4Cl)cccc32)ncc1CN[C@@H](CO)C(N)=O | PD-1/PD-L1 interaction (Homo sapiens) | < 5.70 |
| COc1cc(-n2ncc3c(-c4cccc(-c5ccc(CNC[C@@H]6CCC(=O)N6)c(OC)n5)c4Cl)cccc32)cc(OC)c1CN[C@H](CO)C(=O)O | PD-1/PD-L1 interaction (Homo sapiens) | > 6.70 |
| COc1cc(-n2ncc3c(-c4cccc(-c5ccc(CN6CC7(CNC(=O)C7)C6)c(OC)n5)c4Cl)cccc32)cc(OC)c1CN1CC[C@@H](O)C1 | PD-1/PD-L1 interaction (Homo sapiens) | > 6.70 |
| COc1cc(-n2ccc3c(-c4cccc(-c5ccc(CN6CC(C)(C(=O)O)C6)c(OC)n5)c4Cl)ccnc32)cc(OC)c1CNC[C@@H]1CCC(=O)N1 | PD-1/PD-L1 interaction (Homo sapiens) | < 5.70 |
| COc1cc(-n2ccc3c(-c4cccc(-c5ccc(CN6CC7(CNC(=O)C7)C6)c(OC)n5)c4Cl)cccc32)cc(OC)c1CNC[C@@H]1CCC(=O)N1 | PD-1/PD-L1 interaction (Homo sapiens) | 5.70 to 6.70 |
| COc1cc(-n2ncc3c(-c4cccc(-c5ccc(CN6CC7(CNC(=O)C7)C6)c(OC)n5)c4Cl)cccc32)cc(OC)c1CNCC(C)(C)C(N)=O | PD-1/PD-L1 interaction (Homo sapiens) | > 6.70 |
| COc1cc(-n2ncc3c(-c4cccc(Nc5nc(C(F)F)nc6cc(CN7CC[C@@H](O)C7)cnc56)c4C)cccc32)cc(OC)c1CN1CC[C@@](C)(C(=O)O)C1 | PD-1/PD-L1 interaction (Homo sapiens) | > 6.70 |
| COc1cc(-n2ncc3c(-c4cccc(-c5ccc(CN[C@H]6C[C@@H](O)C6)c(OC)n5)c4Cl)cccc32)cc(OC)c1CNCC1(C(N)=O)CC1 | PD-1/PD-L1 interaction (Homo sapiens) | 5.70 to 6.70 |

# input for lookup
Request: Supply recorded pIC50 for `COc1cc(-n2ncc3c(-c4cccc(-c5ccc(CN6CC[C@@H](C(=O)O)C6)c(OC)n5)c4Cl)cccc32)cc(OC)c1CN1CC2(CNC(=O)C2)C1` here.
Response: > 6.70
